Please go through the items and note down their HepG2 Toxicity LD50.
System: HepG2 cells
Assay type: cell-based
DETAILS: Table 8

What does the record list as HepG2 Toxicity LD50 for C#CCOC(=O)C1=C(C)CS[C@@H]2[C@H](NC(=O)COc3ccccc3)C(=O)N12 ?
>100 µg/mL

Please report the recorded HepG2 Toxicity LD50 for C#CCOC(=O)C1=C(C)CS[C@@H]2[C@H](NC(=O)CCc3ccccc3)C(=O)N12 .
>100 µg/mL

I am curious: what HepG2 Toxicity LD50 value has been reported for C#CCOC(=O)C1=C(C)CS[C@@H]2[C@H](NC(=O)COc3ccc(OC)cc3)C(=O)N12 ?
>100 µg/mL

Requested read-out: HepG2 Toxicity LD50. Entry: C#CCOC(=O)C1=C(C)CS[C@@H]2[C@H](NC(=O)CCc3ccc(OC)cc3)C(=O)N12
>100 µg/mL

Request the reported HepG2 Toxicity LD50 associated with CCCOC(=O)C1=C(C)CS[C@@H]2[C@H](NC(=O)COc3ccc(Cl)cc3)C(=O)N12
100 µg/mL

Param item = CCOC(=O)C1=C(C)CS[C@@H]2[C@H](NC(=O)COc3ccc(OC)cc3)C(=O)N12 ; retrieve measured HepG2 Toxicity LD50.
>100 µg/mL

Entry CCOC(=O)C1=C(C)CS[C@@H]2[C@H](NC(=O)COc3ccccc3)C(=O)N12 has what HepG2 Toxicity LD50?
>100 µg/mL

Using the record for C#CCOC(=O)C1=C(C)CS[C@@H]2[C@H](NC(=O)COc3ccc(Cl)cc3)C(=O)N12 , report its HepG2 Toxicity LD50.
100 µg/mL

What does the record list as HepG2 Toxicity LD50 for C#CCOC(=O)C1=C(C)CS[C@@H]2[C@H](NC(=O)CCc3ccc(Cl)cc3)C(=O)N12 ?
100 µg/mL

// lookup HepG2 Toxicity LD50 for CCCOC(=O)C1=C(C)CS[C@@H]2[C@H](NC(=O)COc3ccc(OC)cc3)C(=O)N12
>100 µg/mL

Endpoint output: HepG2 Toxicity LD50 of CCOC(=O)C1=C(C)CS[C@@H]2[C@H](NC(=O)CCc3ccccc3)C(=O)N12 . Value?
>100 µg/mL

Give its HepG2 Toxicity LD50 value. Item: CCCOC(=O)C1=C(C)CS[C@@H]2[C@H](NC(=O)CCc3ccc(Cl)cc3)C(=O)N12
>100 µg/mL

Need HepG2 Toxicity LD50 of CCCOC(=O)C1=C(C)CS[C@@H]2[C@H](NC(=O)CCc3ccccc3)C(=O)N12 , thanks.
>100 µg/mL

So what's the measured HepG2 Toxicity LD50 for this one? CCOC(=O)C1=C(C)CS[C@@H]2[C@H](NC(=O)CCc3ccc(Cl)cc3)C(=O)N12
>100 µg/mL

Query (compound): C#CCCC(=O)N[C@@H]1C(=O)N2C(C(=O)OCCC)=C(C)CS[C@H]12 ; field requested: HepG2 Toxicity LD50
>100 µg/mL

# query: HepG2 Toxicity LD50 of entry CCOC(=O)C1=C(C)CS[C@@H]2[C@H](NC(=O)CCc3ccc(OC)cc3)C(=O)N12
>100 µg/mL

Tell me the measured HepG2 Toxicity LD50 of CCOC(=O)C1=C(C)CS[C@@H]2[C@H](NC(=O)COc3ccc(Cl)cc3)C(=O)N12 , please.
50 µg/mL
